Value source: patent US20030186281A1

Kindly supply the reported β-Galactosidase Activity, Cultured Without ATC values for the records listed here.
tested on: tet operator sequence; experiment: β-galactosidase activity of a tetracycline-regulated promoter in transformed E. coli with revTetR, in the presence and absence of anhydrotetracycline (atc); format: cell-based, Escherichia coli; conditions: RevTetR isolate cultured in the absence of anhydrotetracycline (ATC)
Numbers only.

TetRrev28/46: revTetR(BD) A13A V20G G21R I22N G24G (protein, Modified tetracycline repressor, revTetR(BD) A13A V20G G21R I22N G24G) MSRLDKSKVINSALELLNEGRNEGLTTRKLAQKLGVEQPTLYWHVKNKRALLDALAVEILARHHDYSLPAAGESWQSFLRNNAMSFRRALLRYRDGAKVHLGTRPDEKQYDTVETQLRFMTENGFSLRDGLYAISAVSHFTLGAVLEQQEHTAALTDRPAAPDENLPPLLREALQIMDSDDGEQAFLHGLESLIRGFEVQLTALLQIV
95.9627

Here is another molecule to look at.
Task item: Looking for the measured β-Galactosidase Activity, Cultured Without ATC of TetRrevAtc4-28: revTetR(BD) V57V E58K L60V R62G (protein, Modified tetracycline repressor, revTetR(BD) V57V E58K L60V R62G) MSRLDKSKVINSALELLNEVGIEGLTTRKLAQKLGVEQPTLYWHVKNKRALLDALAVKIVAGHHDYSLPAAGESWQSFLRNNAMSFRRALLRYRDGAKVHLGTRPDEKQYDTVETQLRFMTENGFSLRDGLYAISAVSHFTLGAVLEQQEHTAALTDRPAAPDENLPPLLREALQIMDSDDGEQAFLHGLESLIRGFEVQLTALLQIV , can you help?
Reply: 85.141
